experiment: reversal of MRP1-mediated doxorubicin resistance, pilot screen, H69AR cells, doxorubicin co-treatment (AID 601); conditions: H69AR cells, CellTiter-Glo, 72 h; compound alone cytotoxicity; at 10 µM
Please respond with Met when measured viability is strictly beneath 90%, and with Not met in all other cases.

Query: State whether 90% exceeds viability recorded for `CN(C)S(=O)(=O)N1CCN(C(=O)N(c2ccccc2)c2ccccc2)CC1` .
Result: Not met

Query: Would you kindly verify if viability of `CCN(CC)c1ccc(NC(=O)c2[nH]c(C)c(C(C)=O)c2C)c(C)c1` is strictly less than 90%?
Result: Met

Query: Please state whether viability is below 90% for `Cc1ccc(Nc2nc(N)nc(CN3CCCCCC3)n2)cc1`
Result: Met

Query: Does the reported viability of the following molecule sit strictly below 90%? `COc1ccc(-c2cc3n(n2)CCc2nc4ccccc4n2-3)cc1`
Result: Not met

Query: A record lists `CCCCn1cnc2c(cnn2-c2ccc(Cl)cc2)c1=O` . Is its viability below 90%?
Result: Met

Query: Quick check: viability of N#CC1=C(N)OC(c2ccccc2)=C(C#N)C1c1ccc2c(c1)OCO2 (stereo unspecified) under 90%?
Result: Not met

Query: Confirm or reject: viability of `COc1ccc(OC)c(NC(=O)CS(=O)(=O)Cc2nc(-c3ccccc3C)oc2C)c1` lies strictly below 90%
Result: Not met

Query: Hello, I'm reviewing records and need to know if viability of COc1cccc(C2C(C(=O)c3cc4ccccc4o3)=C(O)C(=O)N2CCN(C)C)c1OC (stereo unspecified) is below 90%. Could you check?
Result: Not met

Query: Answer whether the molecule `O=C(/C=N/O)NCc1ccncc1` has viability strictly less than 90%
Result: Not met

Query: Could you please tell me whether viability recorded for `Cc1nc2ccccc2c(=O)n1/N=C/c1ccncc1` is less than 90%?
Result: Not met
